All figures here come from paper PMC10797628.

List of 5-HT1A EMAX (%) values.
# study target: human 5-HT1A receptor (Homo sapiens)
# Construct: host or cells: HEK293T
# Sequence (P08908 whole entry): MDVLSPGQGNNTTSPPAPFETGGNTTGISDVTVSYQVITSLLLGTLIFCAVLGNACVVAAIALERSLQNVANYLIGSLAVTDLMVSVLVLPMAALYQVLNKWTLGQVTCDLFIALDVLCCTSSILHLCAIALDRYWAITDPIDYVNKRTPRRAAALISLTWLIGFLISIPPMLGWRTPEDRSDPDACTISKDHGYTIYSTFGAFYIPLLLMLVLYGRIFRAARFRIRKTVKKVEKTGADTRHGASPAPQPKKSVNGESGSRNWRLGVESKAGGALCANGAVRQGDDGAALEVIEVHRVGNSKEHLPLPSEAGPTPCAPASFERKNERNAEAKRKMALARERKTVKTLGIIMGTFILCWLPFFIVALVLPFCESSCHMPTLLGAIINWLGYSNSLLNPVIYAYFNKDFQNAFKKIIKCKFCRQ
# assay method text: cAMP accumulation (LANCE Ultra TR-FRET) in HEK293T cells, WT 5-HT1A
# Format: cell-based
# test parameters: WT receptor; normalized to basal (0%) and 10 μM 5-CT (100%)
readout name: 5-HT1A EMAX (%)

| molecule | study target | meas value |
| --- | --- | --- |
| CN(C)[C@H]1CCc2c(cccc2-c2ccccc2)C1 [(S)-5-PAT] | human 5-HT1A receptor (Homo sapiens) | 100 |
| CN(C)[C@H]1CCc2c(cccc2-c2cccn2C)C1 [(S)-NMP] | human 5-HT1A receptor (Homo sapiens) | 70 |
| CCCN(CCC)[C@H]1CCc2cccc(O)c2C1 [(S)-8-OH-DPAT, reference compound] | human 5-HT1A receptor (Homo sapiens) | 70 |
| CCCN(CCC)[C@@H]1CCc2cccc(O)c2C1 [(R)-8-OH-DPAT, reference compound] | human 5-HT1A receptor (Homo sapiens) | 95 |
